Give half-life at 3 μM for every item shown.
test: Metabolic stability in intestinal S9; assay type: in vitro ADME, cynomolgus monkey; details: cynomolgus, intestinal S9; Monkey; test conc. 3 μM

Query: Data request, read-out half-life at 3 μM, for CCC(=O)N[C@H]1Cc2cccc(C(=O)O)c2OB1O [Compound 2]
Reply: > 120 min

Query: Subsequent entry: COCC1=C(C(=O)OC(C)OC(=O)OC(C)C)N2C(=O)[C@@H](NC(=O)/C(=N\OC)c3csc(N)n3)[C@H]2SC1 (some centres unmarked) [Cefpodoxime proxetil]
Reply: 16.9 min

###

assay: Metabolic stability in intestinal S9; format: in vitro ADME; settings: intestinal S9; Human; test conc. 3 μM
MEASURED_PROPERTY: half-life at 3 μM (min)
Write down the numeric answer in min and omit the unit.

Query: Data request, read-out half-life at 3 μM, for COCC1=C(C(=O)OC(C)OC(=O)OC(C)C)N2C(=O)[C@@H](NC(=O)/C(=N\OC)c3csc(N)n3)[C@H]2SC1 (some centres unmarked)
Reply: 35.6
